Where do the numbers come from? From patent US20040106148A1.

experimental.target: human TAPP1, full length, mutant R28L (FL-TAPP1 [R28L]), GST fusion (Homo sapiens, UniProt Q9HB21, R28L/T320A)
Construct: wild type and mutant forms of full length (FL)
Sequence (Q9HB21 whole entry R28L/T320A, the tested form may be a part): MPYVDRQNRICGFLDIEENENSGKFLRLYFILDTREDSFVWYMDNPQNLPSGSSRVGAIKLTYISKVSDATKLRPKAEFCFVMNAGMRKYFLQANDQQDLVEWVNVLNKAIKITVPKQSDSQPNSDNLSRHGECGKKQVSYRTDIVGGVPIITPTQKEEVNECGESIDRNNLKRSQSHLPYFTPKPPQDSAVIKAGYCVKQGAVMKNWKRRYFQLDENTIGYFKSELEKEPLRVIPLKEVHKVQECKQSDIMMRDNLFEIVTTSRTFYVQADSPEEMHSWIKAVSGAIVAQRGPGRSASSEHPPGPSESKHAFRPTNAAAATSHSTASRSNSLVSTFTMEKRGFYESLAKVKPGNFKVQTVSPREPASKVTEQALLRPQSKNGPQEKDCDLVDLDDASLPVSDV
method.description: Surface plasmon resonance (BIACore), GST fusion binding to phosphoinositide in supported lipid monolayer
condition.description: supported phosphatidylcholine monolayers, 1:1 binding model, read-out: Apparent Kd
readout.label: Kd (nM)

INSERT INTO assay_data (compound, readout_label, number) VALUES
  ('CCCCCCCCCCCCCCCC(=O)OC[C@H](COP(=O)(O)O[C@H]1[C@H](O)[C@@H](O)[C@H](OP(=O)(O)O)[C@@H](OP(=O)(O)O)[C@H]1O)OC(=O)CCCCCCCCCCCCCCC [PtdIns(3,4)P2]', 'Kd', 28);

====

experimental.target: human TAPP1 C-terminal PH domain (CT-PH TAPP1, residues 95 to 404), GST fusion (Homo sapiens, UniProt Q9HB21, T320A)
Sequence (Q9HB21 95-404 T320A): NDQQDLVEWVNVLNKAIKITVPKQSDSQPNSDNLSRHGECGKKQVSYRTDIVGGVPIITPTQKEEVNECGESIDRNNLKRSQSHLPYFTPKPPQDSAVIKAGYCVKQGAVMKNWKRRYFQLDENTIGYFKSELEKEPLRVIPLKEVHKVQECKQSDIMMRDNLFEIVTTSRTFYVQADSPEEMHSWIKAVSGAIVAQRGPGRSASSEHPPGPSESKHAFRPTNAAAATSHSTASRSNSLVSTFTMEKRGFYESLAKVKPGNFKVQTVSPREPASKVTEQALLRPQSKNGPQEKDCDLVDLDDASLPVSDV
method.description: Surface plasmon resonance (BIACore), GST fusion binding to phosphoinositide in supported lipid monolayer
condition.description: supported phosphatidylcholine monolayers, 1:1 binding model, read-out: Apparent Kd
pKd: −log10 of the molar value.
readout.label: pKd

INSERT INTO assay_data (molecule, readout_label, number) VALUES
  ('CCCCCCCCCCCCCCCC(=O)OC[C@H](COP(=O)(O)O[C@H]1[C@H](O)[C@@H](O)[C@H](OP(=O)(O)O)[C@@H](OP(=O)(O)O)[C@H]1O)OC(=O)CCCCCCCCCCCCCCC [PtdIns(3,4)P2]', 'pKd', 7.57);

====

experimental.target: mouse TAPP2, full length (FL-TAPP2, accession AF286161), wild type, GST fusion (Mus musculus, UniProt Q9ERS5)
Sequence (Q9ERS5 whole entry, the tested form may be a part): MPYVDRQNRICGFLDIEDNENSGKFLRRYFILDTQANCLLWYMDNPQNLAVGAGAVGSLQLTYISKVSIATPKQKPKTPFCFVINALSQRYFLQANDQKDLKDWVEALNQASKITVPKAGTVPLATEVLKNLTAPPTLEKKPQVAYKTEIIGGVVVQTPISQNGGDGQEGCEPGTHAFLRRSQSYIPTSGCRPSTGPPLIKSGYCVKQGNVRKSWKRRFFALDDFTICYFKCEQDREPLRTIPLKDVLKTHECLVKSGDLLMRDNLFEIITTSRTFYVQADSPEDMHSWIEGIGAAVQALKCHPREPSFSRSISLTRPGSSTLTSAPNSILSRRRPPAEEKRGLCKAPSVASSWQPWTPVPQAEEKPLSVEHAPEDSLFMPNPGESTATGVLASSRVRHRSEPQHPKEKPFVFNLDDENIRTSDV
method.description: Surface plasmon resonance (BIACore), GST fusion binding to phosphoinositide in supported lipid monolayer
condition.description: supported phosphatidylcholine monolayers, 1:1 binding model, NB, no binding detected, read-out: Apparent Kd
readout.label: Kd (nM)

INSERT INTO assay_data (compound, number) VALUES
  ('CCCCCCCCCCCCCCCC(=O)OC[C@H](COP(=O)(O)O[C@H]1[C@H](O)[C@@H](O)[C@H](OP(=O)(O)O)[C@@H](OP(=O)(O)O)[C@H]1O)OC(=O)CCCCCCCCCCCCCCC [PtdIns(3,4)P2]', 30);
